pIC50 values for the compounds below.
# assay.target: cyclic AMP phosphodiesterase
# method.description: inhibition of cyclic AMP phosphodiesterase, aortic wall media (rabbit)
# Format: biochemical
# recorded.conditions: 50% inhibition of cyclic AMP phosphodiesterase; read-out: I50, Aortic Wall, Media (rabbit)
# Method: The procedure of the experiment was carried out in accordance with the method described in H. Hidaka and M. Shibuya: title "A new assay of cyclic nucleotide phosphodiesterase and its application to humans", Biochemical Medicine, (in press).
pIC50: −log10 of the molar value.
value.kind: pIC50

1) CCOC(=O)c1c(C)cc2c(CO)n[nH]c(=O)c2c1C = 4.62
2) CCOC(=O)c1ccc2c(CO)n[nH]c(=O)c2c1 = 3.84
3) Cn1c(=O)c2c(ncn2C)n(C)c1=O = 3.34

----------
# assay.target: cyclic AMP phosphodiesterase
# method.description: inhibition of cyclic AMP phosphodiesterase, aortic wall intima (rabbit)
# Format: biochemical
# recorded.conditions: 50% inhibition of cyclic AMP phosphodiesterase; read-out: I50, Aortic Wall, Intima (rabbit)
# Method: The procedure of the experiment was carried out in accordance with the method described in H. Hidaka and M. Shibuya: title "A new assay of cyclic nucleotide phosphodiesterase and its application to humans", Biochemical Medicine, (in press).
pIC50: −log10 of the molar value.
pIC50 values for the molecules below.
value.kind: pIC50

1. CCOC(=O)c1c(C)cc2c(CO)n[nH]c(=O)c2c1C = 5.80
2. CCOC(=O)c1ccc2c(CO)n[nH]c(=O)c2c1 = 4.28

----------
# method.description: in vivo
# recorded.conditions: mouse, oral, mice
value.kind: LD50 (mg/kg)

1. CCOC(=O)c1ccc2c(CO)n[nH]c(=O)c2c1 = 5000
2. O=c1[nH]nc(CO)c2ccccc12 [4-hydroxymethyl-1-phthalazone] = 4000
